Where these numbers come from: paper PMC9582194

Test: Peptide fraction helicity by CD at 222 nm, peptide-only samples
Type: physicochemical
Details: CD signal at 222 nm of peptide-only samples; pH 7.4 phosphate/KF/TCEP buffer; duplicate experiments
No end group written: not given here.
fH, peptide fraction helicity strictly less than 40% = Met. Otherwise Not met.

{"substance": "Ac-LVVEEDVLEEEIEQLEEKNKALKDEIEDLQKQLEKLY-NH2 [HW10]", "labelValue": "Not met"}
{"substance": "Ac-EAEELVVEEDVLEEEIEQLEERNYALRKEIEDLQKQLEKL-NH2 [HW4]", "labelValue": "Not met"}
{"substance": "Ac-EAEELVVEEDVLEEEIKQLEDRNYALRKEIEDLQKQ-NH2 [HW24]", "labelValue": "Met"}
{"substance": "Ac-EAKELVDEEDVLEEEIEQLEERNYALRKEIEDLQKQ-NH2 [HW20]", "labelValue": "Met"}
{"substance": "Ac-EAEELVVEEDVLEEEIEQLEERNYALRKEIEDL-NH2 [HW9]", "labelValue": "Met"}
{"substance": "Ac-EAEELVVEEKVLEDEIEQLEERNYALRKEIEDLQKQ-NH2 [HW22]", "labelValue": "Met"}
{"substance": "Ac-KEAEDLVVEEDVLEEEIEQLEERNYALRKEIKDLQDQ-NH2 [HW18]", "labelValue": "Met"}
{"substance": "Ac-EAEELVVEEDVLEEEIEQLEERNYALRKEIEDLQ-NH2 [HW16]", "labelValue": "Met"}

[in] Is fH, peptide fraction helicity strictly under 40% for the entry Ac-LVVEEDVLEEEIEQLEERNYALRKEIEDLQKQLEDL-NH2 [HW12] ?
[out] Not met

[in] Is fH, peptide fraction helicity strictly under 40% for the entry EDVLEEEIEQLEERNYALRKEIEDLQKQLEKLGAP-NH2 (C-terminus assumed) [HW6] ?
[out] Met

[in] Is fH, peptide fraction helicity strictly under 40% for the entry Ac-EAEELVVEEDVLEEEIEQLEEKNKALKDEIEDLQKQY-NH2 [HW26] ?
[out] Met

[in] Is fH, peptide fraction helicity strictly under 40% for the entry Ac-LARENEELEKEAEELVVEEDVLEEEIEQLEERNYALRKEIEDLQKQLEKL-NH2 [HW2] ?
[out] Met

[in] Is fH, peptide fraction helicity strictly under 40% for the entry Ac-LEKEAEELVVEEDVLEEEIEQLEERNYALRKEIEDLQKQLEKL-NH2 [HW3] ?
[out] Met

[in] Is fH, peptide fraction helicity strictly under 40% for the entry Ac-EAEELVVEEDVLEEEIEQLEEKNKALKDEIEDLY-NH2 [HW14] ?
[out] Met

[in] Is fH, peptide fraction helicity strictly under 40% for the entry Ac-EAEELVVEEDVLEEEIEQLEERNYALRKEIEDLQKQ-NH2 [HW8] ?
[out] Met

[in] Is fH, peptide fraction helicity strictly under 40% for the entry Ac-EAEELVVEEDVLEEEIEQLEERNYALRKEIKDLQDQ-NH2 [HW28] ?
[out] Met

[in] Is fH, peptide fraction helicity strictly under 40% for the entry Ac-LVVEEDVLEEEIEQLEERNYALRKEIEDLQKQLEKL-NH2 [HW5] ?
[out] Not met

====

Target: cJun (Homo sapiens)
Construct: The same 60 amino acid cJun construct, encompassing the entire bZIP domain, was used for all experiments
Sequence (P05412 252-315 limits assumed): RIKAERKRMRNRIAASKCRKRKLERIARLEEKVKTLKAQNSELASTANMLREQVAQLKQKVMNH
Assay: CD thermal denaturation of peptide-cJun heterodimers (Tm)
Assay type: binding
Settings: CD ellipticity at 222 nm, 1-90 °C; peptide (5 μM)/cJun (5 μM); 20 mM potassium phosphate, 150 mM potassium fluoride, 2 mM TCEP pH 7.4; two-state fit; duplicate experiments, ± one SD
endpointName: Tm of peptide-cJun heterodimer (°C)
Lab book: enter the figure in °C, no units written.

See these solved cases before continuing.
{"substance": "Ac-LARENEELEKEAEELVVEEDVLEEEIEQLEERNYALRKEIEDLQKQLEKL-NH2 [HW2]", "unitsOfMeasure": "°C", "Tm of peptide-cJun heterodimer": 68.5}
{"substance": "Ac-EAEELVVEEDVLEEEIEQLEERNYALRKEIEDLQ-NH2 [HW16]", "unitsOfMeasure": "°C", "Tm of peptide-cJun heterodimer": 53.8}

# ---- query substance ----
[in] Quote Tm of peptide-cJun heterodimer reported for Ac-LVVEEDVLEEEIEQLEERNYALRKEIEDLQKQLEKL-NH2 [HW5] please.
[out] 62.8
